- System: K24384-001-R-PDC KRAS patient-derived spheroid viability;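 also: spheroids exposed to agents for 7 days before readout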
- PROCEDURE SUMMARY: Anticancer human tumor K24384-001-R-PDC patient-derived pancreatic adenocarcinoma cell line growth inhibition [KRAS2]; active = viability on the fitted dose curve at most 10% of control; inactive = the rest
- CONDITION PARAMETERS: second compound 3.16 µM; first compound 0.0316 µM; spheroids with HUVEC and MSC
Classes to choose from: active, inactive

What call does the record list for CCN1CCN(Cc2ccc(Nc3ncc(F)c(-c4cc(F)c5nc(C)n(C(C)C)c5c4)n3)nc2)CC1 + COc1cc2nc(C)nc(NC(C)c3cc(N)cc(C(F)(F)F)c3)c2cc1OC1CCOC1 ?
inactive

What do you get for CC1(C)CCC(CN2CCN(c3ccc(C(=O)NS(=O)(=O)c4ccc(NCC5CCOCC5)c([N+](=O)[O-])c4)c(Oc4cnc5[nH]ccc5c4)c3)CC2)=C(c2ccc(Cl)cc2)C1 + CNCc1ccccc1-c1csc(C(C)Nc2nc(C)nc3cc(OC)c(OC)cc23)c1 ?
active

What do you get for CC(=O)OC12COC1CC(O)C1(C)C(=O)C(O)C3=C(C)C(OC(=O)C(O)C(NC(=O)OC(C)(C)C)c4ccccc4)CC(O)(C(OC(=O)c4ccccc4)C21)C3(C)C (stereo not given) + COc1cc2nc(C)nc(NC(C)c3cc(N)cc(C(F)(F)F)c3)c2cc1OC1CCOC1 ?
inactive

What do you get for Cn1nccc1Nc1nccc(-c2cc3c(s2)C(C)(C)N(CCN2CCOCC2)C3=O)n1 + COc1cc2nc(C)nc(NC(C)c3cc(N)cc(C(F)(F)F)c3)c2cc1OC1CCOC1 ?
inactive

What do you get for CC1COCCN1c1cc(-c2ccnn2C)c2ccnc(-c3ccn[nH]3)c2n1 (stereo not given) + CC1OCC2(CCN(c3cnc(Sc4ccnc(N)c4Cl)c(N)n3)CC2)C1N ?
inactive
